- SYSTEM UNDER TEST: pre-existing anti-scFv903 antibodies in human serum H55 (human)
- ASSAY NAME: competition ADA bridging ELISA
REPORTED ENDPOINT: signal change in competition ELISA (% reduction in OD) (%)
Number in %, nothing else.

Here's what some known entries look like.
1) scFv 791 (scFv) scFv: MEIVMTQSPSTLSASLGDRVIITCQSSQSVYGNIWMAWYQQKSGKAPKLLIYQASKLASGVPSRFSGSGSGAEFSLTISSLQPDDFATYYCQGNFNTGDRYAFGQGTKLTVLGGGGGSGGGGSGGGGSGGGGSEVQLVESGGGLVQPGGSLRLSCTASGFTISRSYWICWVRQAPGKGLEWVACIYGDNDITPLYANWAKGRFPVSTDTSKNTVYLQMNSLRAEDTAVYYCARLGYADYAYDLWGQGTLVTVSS: -96
2) scFv 961 (scFv) scFv: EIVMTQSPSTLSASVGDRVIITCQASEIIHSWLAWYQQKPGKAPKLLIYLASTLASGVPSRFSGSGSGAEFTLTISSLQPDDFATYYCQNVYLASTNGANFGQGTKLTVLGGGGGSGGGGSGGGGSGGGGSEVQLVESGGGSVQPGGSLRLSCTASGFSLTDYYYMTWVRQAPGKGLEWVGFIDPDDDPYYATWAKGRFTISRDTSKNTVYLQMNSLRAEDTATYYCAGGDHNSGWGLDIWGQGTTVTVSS: -15
3) scFv105 (scFv) scFv: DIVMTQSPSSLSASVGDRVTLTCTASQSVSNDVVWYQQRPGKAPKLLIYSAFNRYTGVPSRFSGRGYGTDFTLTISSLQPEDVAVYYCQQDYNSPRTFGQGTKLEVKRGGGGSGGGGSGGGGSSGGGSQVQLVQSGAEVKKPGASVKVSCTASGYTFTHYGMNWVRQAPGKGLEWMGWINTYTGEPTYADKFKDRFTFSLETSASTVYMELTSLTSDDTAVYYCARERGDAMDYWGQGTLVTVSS: -72

Q: Quick check: signal change in competition ELISA (% reduction in OD) of scFv 903 (scFv) scFv: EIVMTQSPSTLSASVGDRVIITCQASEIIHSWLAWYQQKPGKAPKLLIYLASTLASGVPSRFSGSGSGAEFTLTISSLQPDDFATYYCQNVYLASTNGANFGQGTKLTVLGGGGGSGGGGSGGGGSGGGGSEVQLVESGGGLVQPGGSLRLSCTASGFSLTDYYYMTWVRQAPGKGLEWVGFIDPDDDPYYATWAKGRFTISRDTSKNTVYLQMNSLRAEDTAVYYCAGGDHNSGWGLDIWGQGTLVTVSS ?
Result: -89
